# TESTED SYSTEM: Tyrosine-protein kinase Srms (Homo sapiens)
# CONDITION SET: at 1 µM
# Description: GSK_PKIS: SRMS mean inhibition at 1 uM [Nanosyn]
MEASURED PARAMETER: inhibition
Number first, unit second.

A selection of reference data follows.
{"CHEMICAL SMILES": "CCCN1CCC(Oc2cc(Nc3nc(Nc4cccc(F)c4C(N)=O)c4cc[nH]c4n3)c(OC)cc2Cl)CC1", "inhibition": "0.37%"}
{"CHEMICAL SMILES": "CN1CCC(C(=O)Nc2n[nH]c3nnc(-c4ccccc4)cc23)CC1", "inhibition": "-5.75%"}
{"CHEMICAL SMILES": "CCn1c(-c2nonc2N)nc2cncc(C(=O)N3CC[C@H](N)C3)c21", "inhibition": "-0.65%"}
{"CHEMICAL SMILES": "O=C1NC(=O)C(c2ccc(Cl)cc2)=C1Nc1ccc(Cl)c(C(=O)O)c1", "inhibition": "2.75%"}
{"CHEMICAL SMILES": "COc1cc2ncn(-c3cc(OCc4ccccc4Cl)c(C(N)=O)s3)c2cc1OC", "inhibition": "7.95%"}

Field request: inhibition | item: CS(=O)(=O)Nc1ccc(N/C=C2\C(=O)Nc3ccccc32)cc1 1.32%

Data request, read-out inhibition, for O=C1Nc2ccc(C(=O)c3ccco3)cc2C1=Cc1cc(Cl)c(O)c(Cl)c1 59.7%

What does the data say about its inhibition? Entry: CCN1CCC(CC(=O)Nc2n[nH]c3nc(-c4cccs4)c(Br)cc23)CC1 -0.34%

I'd like to know its inhibition. The compound in question is CNC(=O)c1cncc(/C=C/c2c(Cl)cccc2Cl)c1 8.71%

Quick check: inhibition of c1cnn2ncc(-c3ccnc(Nc4ccc5c(c4)OCCO5)n3)c2c1 ? 1.78%

Numbers sourced from ChEMBL document CHEMBL1961873.
